- Target Or System: HIV-1 pNL4-3 integrase (Human immunodeficiency virus type 1 group M subtype B (isolate NY5) (HIV-1))
- Procedure Summary: Determination of enzyme (HIV integrase) inhibitory activity
- Cond: calculated from inhibition rate (fluorescence)
Assay Endpoint: IC50 (nM)
One number for each entry, in nM.

Example compounds with recorded IC50:
COC[C@H]1CN(C(C)(C)C)C(=O)c2c(O)c(=O)c(-c3nnc(Cc4ccc(F)cc4F)s3)cn21 [Example 131] :: 13
COC[C@H]1CN(C(C)C)C(=O)c2c(O)c(=O)c(-c3nnc(CCCc4ccc(F)cc4)s3)cn21 [Example 242] :: 13
CN(C)C(=O)[C@@]1(C)CN(C)C(=O)c2c(O)c(=O)c(-c3ncc(Cc4ccc(F)cc4F)s3)cn21 [Example 336] :: 7.2
CC[C@@H](C)N1C[C@H](COC)n2cc(-c3nnc(Cc4ccc(F)cc4F)s3)c(=O)c(O)c2C1=O [Example 147] :: 8.3
CC(C)N1CC(C)(C(=O)N2CCCCC2)n2cc(-c3ncc(Cc4ccc(F)cc4)s3)c(=O)c(O)c2C1=O (stereo not shown) [Example 108] :: 18

Give IC50 for each of the items listed below.
1. CCN(CC)C(=O)CC1CN(C(C)C)C(=O)c2c(O)c(=O)c(-c3ncc(Cc4ccc(F)cc4F)s3)cn21 (stereo not shown) [Example 77]
2. CC(C)N1C[C@](C)(C(=O)N2CCC2)n2cc(-c3ncc(Cc4ccc(F)cc4)s3)c(=O)c(O)c2C1=O [Example 236]

Reply:
11
13
